- Test system: control Gram-negative E. coli 25922 strain
- assay-notes: Antibacterial activity, microbroth dilution MIC, E. coli 25922
- Assay type: cell-based, Escherichia coli
- cond: Escherichia coli; E. coli 25922, microbroth dilution; read-out: MIC, 25922
assay-metric: MIC

molecule	MIC
CCc1cc(C(=O)O)c(=O)[nH]c1-c1ccc(N2CCC(O)C2)cc1 (stereo not shown) [Cpd 123]	< 1 µg/mL
CCc1cc(C(=O)O)c(=O)[nH]c1-c1ccc(N2CCC(N(CC)CC)C2)cc1.O=C(O)C(F)(F)F (stereo not shown) [Cpd 172]	3.5 to 12.5 µg/mL
Cc1c(-c2ccc(N3CCCC3)cn2)[nH]c(=O)c(C(=O)O)c1O [Cpd 315]	12.5 to 150 µg/mL
CCc1cc(C(=O)O)c(=O)[nH]c1-c1ccc(N2CCC(CNCc3ccccc3F)C2)cc1 (stereo not shown) [Cpd 240]	1 to 3.5 µg/mL
CCc1cc(C(=O)O)c(=O)[nH]c1-c1ccc(N2C[C@H]3C[C@@H](N)[C@H]3C2)cc1 [Cpd 211]	3.5 to 12.5 µg/mL

Okay, here is my list. What is MIC for each of these?
1. CCc1cc(C(=O)O)c(=O)[nH]c1-c1ccc(F)cc1 [Cpd 26]
2. CCc1c(-c2ccc(N(C)C)nc2)[nH]c(=O)c(C(=O)O)c1O [Cpd 87]
3. CCc1c(-c2ccnn2C)[nH]c(=O)c(C(=O)O)c1O [Cpd 345]
4. CCc1cc(C(=O)O)c(=O)[nH]c1-c1ccccc1 [Cpd 75]
5. CCc1cc(C(=O)O)c(=O)[nH]c1-c1ccc(N2CC3(CCCCC3)CC2=O)cc1 [Cpd 118]

["12.5 to 150 µg/mL", "12.5 to 150 µg/mL", "12.5 to 150 µg/mL", "12.5 to 150 µg/mL", "12.5 to 150 µg/mL"]

Okay, here is my list. What is MIC for each of these?
1. CCc1cc(C(=O)O)c(=O)[nH]c1-c1ccc(N2CCOCC2)c(F)c1 [Cpd 84]
2. CCc1cc(C(=O)O)c(=O)[nH]c1-c1ccc(N2C[C@H]3CCC[C@@H](N)[C@H]3C2)cc1.O=C(O)C(F)(F)F [Cpd 197]
3. CCc1cc(C(=O)O)c(=O)[nH]c1-c1ccc(N2CCCCC2)cc1C [Cpd 52]
4. CCc1c(-c2cnc(N(C)C)cn2)[nH]c(=O)c(C(=O)O)c1O [Cpd 312]
5. CCc1cc(C(=O)O)c(=O)[nH]c1-c1ccc(OC)cc1OC [Cpd 34]

1. 12.5 to 150 µg/mL
2. 12.5 to 150 µg/mL
3. 12.5 to 150 µg/mL
4. 12.5 to 150 µg/mL
5. 12.5 to 150 µg/mL

###

- System: Pseudomonas aeruginosa (P. aeruginosa) 27853
- assay-notes: Antibacterial activity, MIC, P. aeruginosa 27853
- Format: cell-based
- cond: Pseudomonas aeruginosa, P. aeruginosa 27853; read-out: MIC 27853
assay-metric: MIC

compound	reported-value
CCc1c(-c2ccc(N3CCC(CNC)C3)cc2)[nH]c(=O)c(C(=O)O)c1O.Cl (centres unmarked)	3.5 to 12.5 µg/mL
CCc1cc(C(=O)O)c(=O)[nH]c1-c1ccc(N2C[C@H]3CCC[C@H](N)[C@H]3C2)cc1.O=C(O)C(F)(F)F	12.5 to 150 µg/mL
CCc1c(-c2ccc(N3CCC4(CCNC4)C3)cc2)[nH]c(=O)c(C(=O)O)c1O (centres unmarked)	12.5 to 150 µg/mL
CCc1c(-c2ccc(N3CCCC3)cc2)[nH]c(=O)c(C(=O)O)c1O	12.5 to 150 µg/mL
CCc1cc(C(=O)O)c(=O)[nH]c1-c1ccc(N2CCC(N)C2)cc1.O=C(O)C(F)(F)F (centres unmarked)	12.5 to 150 µg/mL
CCc1cc(C(=O)O)c(=O)[nH]c1-c1ccc(N2CC[C@H](F)C2)cc1	3.5 to 12.5 µg/mL

Okay, here is my list. What is MIC for each of these?
1. CCc1cc(C(=O)O)c(=O)[nH]c1-c1ccc(N2CCC2)cc1
2. CN(C)c1ccc(-c2ccc(C(=O)O)c(=O)[nH]2)cc1
3. CCc1cc(C(=O)O)c(=O)[nH]c1-c1ccc(Nc2ccccc2)cc1
4. CCc1c(-c2ccc(C3CCN(C)CC3)cc2)[nH]c(=O)c(C(=O)O)c1O
5. CCc1cc(C(=O)O)c(=O)[nH]c1-c1ccc(N2CC=CC2)cc1

12.5 to 150 µg/mL
12.5 to 150 µg/mL
12.5 to 150 µg/mL
12.5 to 150 µg/mL
3.5 to 12.5 µg/mL

The reported measurements were obtained from patent US9650395B2.
